read-out: Epidermal growth factor receptor (EGFR), EGFR (gene 1956); assay: BSK_hDFCGF_EGFR: BioMAP Diversity Plus: hDFCGF Assay for Epidermal growth factor receptor (EGFR) Biomarker Activity (AID 2283057); settings: primary human foreskin fibroblasts; actives raise or lower the signal
Activity calls are given as the source filed them. Rule for the calls: active = hit-call score of the fitted dose curve at least 0.9, where 1 is the maximum; inactive = score below 0.9.
Labels: active, inactive

[
  {
    "molecule": "CCON=C(CC)C1=C(O)CC(c2c(C)cc(C)cc2C)CC1=O (stereo unspecified)",
    "assigned-label": "inactive"
  },
  {
    "molecule": "CCOC(=O)C(Cl)Cc1cc(-n2nc(C)n(C(F)F)c2=O)c(F)cc1Cl (stereo unspecified)",
    "assigned-label": "inactive"
  },
  {
    "molecule": "N#Cc1cc(Br)c(O)c(Br)c1",
    "assigned-label": "inactive"
  },
  {
    "molecule": "CC1COC(Cn2cncn2)(c2ccc(Oc3ccc(Cl)cc3)cc2Cl)O1 (stereo unspecified)",
    "assigned-label": "active"
  },
  {
    "molecule": "COC(=O)N(OC)c1ccccc1COc1ccn(-c2ccc(Cl)cc2)n1",
    "assigned-label": "inactive"
  },
  {
    "molecule": "CCCCOC(=O)c1ccccc1C(=O)OCCCC",
    "assigned-label": "inactive"
  }
]

All values here come from PubChem BioAssay (EPA / NIEHS).
